Every entry's value here was drawn from paper PMC6282443.

Test system: HepG2 cells
experiment-notes: MTT anti-proliferative assay, HepG2
Format: cell-based, human
condition-info: Homo sapiens, HepG2, 72 h, read-out: Anti-proliferative activity IC50, HepG2
pIC50: −log10 of the molar value.
Some compounds, each annotated with its measured pIC50.

>>> measured("O=C(N/N=C/c1ccc(OCCCN2CCOCC2)cc1)Nc1cc2c(Nc3ccc(F)c(Cl)c3)ncnc2cc1O[C@H]1CCOC1")
"< 4.00"
>>> measured("O=C(N/N=C/c1ccc(CN2CCOCC2)cc1)Nc1cc2c(Nc3ccc(F)c(Cl)c3)ncnc2cc1O[C@H]1CCOC1")
"< 4.00"

Query compound follows.
Request: Let me know recorded pIC50 for COc1cc2ncnc(Nc3ccc(F)c(Cl)c3)c2cc1NC(=O)N/N=C/c1ccc(CN2CCOCC2)cc1 , thanks.
Response: < 4.00
